The values you see were collected from patent US20110065669A1.

Biological target: recombinant human mGluR2 (Homo sapiens)
Sequence (Q14416 19-872): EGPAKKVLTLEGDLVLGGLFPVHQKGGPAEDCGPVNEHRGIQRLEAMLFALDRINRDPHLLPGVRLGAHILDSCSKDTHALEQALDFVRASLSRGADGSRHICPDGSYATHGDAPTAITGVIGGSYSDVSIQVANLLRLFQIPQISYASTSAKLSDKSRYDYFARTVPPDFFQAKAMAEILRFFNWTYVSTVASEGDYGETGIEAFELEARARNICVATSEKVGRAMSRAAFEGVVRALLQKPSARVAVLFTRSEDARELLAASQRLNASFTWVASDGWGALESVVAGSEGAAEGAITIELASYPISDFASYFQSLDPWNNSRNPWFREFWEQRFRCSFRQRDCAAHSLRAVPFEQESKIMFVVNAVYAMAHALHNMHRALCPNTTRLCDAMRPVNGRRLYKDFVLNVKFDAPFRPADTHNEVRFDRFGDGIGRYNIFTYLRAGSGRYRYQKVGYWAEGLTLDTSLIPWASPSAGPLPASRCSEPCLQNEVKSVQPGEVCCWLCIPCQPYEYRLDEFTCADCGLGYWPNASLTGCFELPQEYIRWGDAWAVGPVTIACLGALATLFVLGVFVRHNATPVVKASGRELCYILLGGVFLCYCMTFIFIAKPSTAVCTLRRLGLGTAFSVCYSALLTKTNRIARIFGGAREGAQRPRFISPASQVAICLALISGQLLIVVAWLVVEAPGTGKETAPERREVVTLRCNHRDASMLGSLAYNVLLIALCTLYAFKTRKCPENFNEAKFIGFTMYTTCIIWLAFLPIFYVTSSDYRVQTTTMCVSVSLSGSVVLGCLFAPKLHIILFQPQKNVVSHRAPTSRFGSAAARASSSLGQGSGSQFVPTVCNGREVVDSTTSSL
Experiment: FLIPR assay (Ca2+ mobilization), potentiation of the mGluR2 receptor
Details: CHO dhfr- cells expressing human mGluR2 and Gα16; potentiation after EC20 glutamate (900 nM)
quantity.name: EC50 (nM)

A: c1ccc(OC[C@@H]2Cn3c(nc4ccccc43)O2)cc1 [Example 3-20, reference compound]
B: CC(=O)c1cccc(OC[C@@H]2Cn3c(nc4ccccc43)O2)c1
Quick one: lower EC50, A or B ? Give the label under which the chosen entry appears. A

a: CC(C)(C)c1ccc(OC[C@@H]2Cn3c(nc4ccccc43)O2)cc1
b: Cn1nccc1-c1ccc(OC[C@@H]2Cn3c(nc4ccccc43)O2)cc1
c: Clc1cccc(OC[C@@H]2Cn3c(nc4ccccc43)O2)c1
Give the ascending ranking of the items by reported EC50. Answer by listing the labels in the order asked for. a, c, b
(a: 11 nM, c: 37 nM, b: 137 nM)
